System: mitochondrial complex I
Construct: native multi-subunit complex in sonicated mitochondria isolated from potato tuber; with Gamma-CA (complex I subunit detected in the pull-down)
test.description: deamino-NADH oxidation ([…] nm) in sonicated mitochondria; OCR; pull-down with FSL0260-fixed agarose beads
Assay type: biochemical, Solanum tuberosum
result.type: IC50 (µM)

compound	endpoint.unit	result.value
Cc1ccc(S(=O)(=O)OCC2Oc3ccccc3C=C2C[n+]2ccccc2)cc1 (stereo not shown)	µM	45.1
